- measurementNotes: Cell viability (MTT) assay
- Assay type: cell-based
- assaySetup: human, wild type Jurkat cells, highest concentration 5 μM
We begin with a simple list: items and their reported CC50 at 48 h.

Example results:
> print(dat)
                                   compound  measurementname  result
1  Cc1ccccc1-n1nnnc1Sc1ccnc2cc(Cl)ccc12 [compound 11]     CC50 at 48 h  > 5 µM
2  Cc1cccc(C)c1-n1nnnc1Sc1ncnc2ccsc12 [compound 14]     CC50 at 48 h  > 5 µM

Next, consider the following compound.
Q. Give the measured CC50 at 48 h of CCN(CC)Cc1nc(Sc2nnnn2-c2ccccc2)c2c(C)c(C)sc2n1 [compound 7] .
A. 1.5 µM
